We begin with a simple list: items and their reported IC50.
molecular target: JNK3 (Homo sapiens, UniProt P53779); assay: Measurement of JNK3 enzyme activity; format: biochemical; conditions: Table 1
Sequence (P53779 whole entry, species assumed): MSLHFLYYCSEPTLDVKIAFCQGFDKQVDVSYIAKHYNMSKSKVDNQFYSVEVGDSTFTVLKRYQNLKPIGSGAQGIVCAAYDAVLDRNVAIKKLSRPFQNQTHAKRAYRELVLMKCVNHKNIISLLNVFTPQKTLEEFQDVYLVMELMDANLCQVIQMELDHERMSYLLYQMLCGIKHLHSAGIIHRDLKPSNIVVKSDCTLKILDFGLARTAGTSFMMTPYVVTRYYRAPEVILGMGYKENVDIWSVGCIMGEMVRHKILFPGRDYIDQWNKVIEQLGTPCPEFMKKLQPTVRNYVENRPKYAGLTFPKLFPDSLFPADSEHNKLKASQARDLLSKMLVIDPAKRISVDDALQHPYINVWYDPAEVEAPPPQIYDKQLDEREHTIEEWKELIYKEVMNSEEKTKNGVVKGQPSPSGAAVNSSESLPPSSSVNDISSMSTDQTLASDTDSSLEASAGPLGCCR
Measure: IC50

Compound: NC(=O)C1Cc2nc(-c3ccc(F)c(C(F)(F)F)c3)n(-c3ccnc(N[C@@H]4CCN(C(=O)C5CC5)C4)n3)c2C1 (stereo partly drawn) [Compound 21a]
Reading: > 1000 nM
--
Compound: CNC(=O)C1Cc2nc(-c3ccc(F)c(C(F)(F)F)c3)n(-c3ccnc(NC4CCCN(C(=O)C5CC5)C4)n3)c2C1 (single isomer, unassigned) [Compound 26a]
Reading: < 30 nM
--
Compound: CCOC(=O)C1Cc2nc(-c3ccc(F)c(C(F)(F)F)c3)n(-c3ccnc(N[C@@H]4CCCN(C(=O)C5CC5)C4)n3)c2C1 (stereo partly drawn) [Compound 19a]
Reading: < 30 nM
--
Compound: CCOC(=O)C1Cc2nc(-c3ccc(F)c(C(F)(F)F)c3)n(-c3ccnc(N[C@@H]4CCN(C(=O)C5CC5)C4)n3)c2C1 (stereo partly drawn) [Compound 17a]
Reading: < 30 nM
--
Compound: NC(=O)C1Cc2nc(-c3ccc(F)c(C(F)(F)F)c3)n(-c3ccnc(NC4CCCN(C(=O)C5CC5)C4)n3)c2C1 (single isomer, unassigned) [Compound 22a]
Reading: < 30 nM
--
Compound: NC(=O)C1Cc2nc(-c3ccc(F)c(C(F)(F)F)c3)n(-c3ccnc(N[C@H]4CCN(C(=O)C5CC5)C4)n3)c2C1 (stereo partly drawn) [Compound 20a]
Reading: > 1000 nM
--
Compound: CCOC(=O)C1Cc2nc(-c3ccc(F)c(C(F)(F)F)c3)n(-c3ccnc(N[C@H]4CCCN(C(=O)C5CC5)C4)n3)c2C1 (stereo partly drawn) [Compound 18a]
Reading: < 30 nM
--
Compound: CNC(=O)C1Cc2nc(-c3ccc(F)c(C(F)(F)F)c3)n(-c3ccnc(N[C@H]4CCN(C(=O)C5CC5)C4)n3)c2C1 (stereo partly drawn) [Compound 24a]
Reading: > 1000 nM
--
Compound: CNC(=O)C1Cc2nc(-c3ccc(F)c(C(F)(F)F)c3)n(-c3ccnc(NC4CCCN(C(=O)C5CC5)C4)n3)c2C1 (single isomer, unassigned) [Compound 27a]
Reading: > 1000 nM
--
Compound: CCOC(=O)C1Cc2nc(-c3ccc(F)c(C(F)(F)F)c3)n(-c3ccnc(N[C@H]4CCN(C(=O)C5CC5)C4)n3)c2C1 (stereo partly drawn) [Compound 16a]
Reading: > 1000 nM
--
Compound: CNC(=O)C1Cc2nc(-c3ccc(F)c(C(F)(F)F)c3)n(-c3ccnc(N[C@@H]4CCN(C(=O)C5CC5)C4)n3)c2C1 (stereo partly drawn) [Compound 25a]
Reading: > 1000 nM
--
Compound: NC(=O)C1Cc2nc(-c3ccc(F)c(C(F)(F)F)c3)n(-c3ccnc(NC4CCCN(C(=O)C5CC5)C4)n3)c2C1 (single isomer, unassigned) [Compound 23a]
Reading: > 1000 nM

----------
molecular target: UniProt:P53779; experiment: Measurement of JNK3 enzyme activity; assay type: biochemical; conditions: Table 4
pIC50: −log10 of the molar value.

Molecule: NC(=O)C1Cc2nc(-c3ccc4c(c3)OCO4)n(-c3ccnc(N[C@@H]4CCN(C(=O)C5CC5)C4)n3)c2C1 (stereo partly shown) [Compound 21d]
Target: UniProt:P53779
pIC50: < 6.00

Molecule: NC(=O)C1Cc2nc(-c3ccc4c(c3)OCO4)n(-c3ccnc(N[C@H]4CCCN(C(=O)C5CC5)C4)n3)c2C1 (stereo partly shown) [Compound 22d]
Target: UniProt:P53779
pIC50: > 7.52

Molecule: CNC(=O)C1Cc2nc(-c3ccc4c(c3)OCO4)n(-c3ccnc(NC4CCN(C(=O)C5CC5)C4)n3)c2C1 (single isomer, unassigned) [Compound 24d]
Target: UniProt:P53779
pIC50: < 6.00

Molecule: CCOC(=O)C1Cc2nc(-c3ccc4c(c3)OCO4)n(-c3ccnc(N[C@@H]4CCCN(C(=O)C5CC5)C4)n3)c2C1 (stereo partly shown) [Compound 19d]
Target: UniProt:P53779
pIC50: > 7.52

Molecule: CNC(=O)C1Cc2nc(-c3ccc4c(c3)OCO4)n(-c3ccnc(N[C@@H]4CCN(C(=O)C5CC5)C4)n3)c2C1 (stereo partly shown) [Compound 25d]
Target: UniProt:P53779
pIC50: > 7.52

Molecule: NC(=O)C1Cc2nc(-c3ccc4c(c3)OCO4)n(-c3ccnc(N[C@H]4CCN(C(=O)C5CC5)C4)n3)c2C1 (stereo partly shown) [Compound 20d]
Target: UniProt:P53779
pIC50: < 6.00

Molecule: CCOC(=O)C1Cc2nc(-c3ccc4c(c3)OCO4)n(-c3ccnc(N[C@H]4CCCN(C(=O)C5CC5)C4)n3)c2C1 (stereo partly shown) [Compound 18d]
Target: UniProt:P53779
pIC50: > 7.52

Molecule: CCOC(=O)C1Cc2nc(-c3ccc4c(c3)OCO4)n(-c3ccnc(N[C@H]4CCN(C(=O)C5CC5)C4)n3)c2C1 (stereo partly shown) [Compound 16d]
Target: UniProt:P53779
pIC50: < 6.00

Molecule: NC(=O)C1Cc2nc(-c3ccc4c(c3)OCO4)n(-c3ccnc(N[C@@H]4CCCN(C(=O)C5CC5)C4)n3)c2C1 (stereo partly shown) [Compound 23d]
Target: UniProt:P53779
pIC50: > 7.52

Molecule: CCOC(=O)C1Cc2nc(-c3ccc4c(c3)OCO4)n(-c3ccnc(N[C@@H]4CCN(C(=O)C5CC5)C4)n3)c2C1 (stereo partly shown) [Compound 17d]
Target: UniProt:P53779
pIC50: > 7.52

----------
We begin with a simple list: items and their reported IC50.
target: JNK3 (Homo sapiens); experiment: Measurement of JNK3 enzyme activity; type: biochemical; settings: Table 5
Measure: IC50

Molecule: NC(=O)C1Cc2nc(-c3ccc4c(c3)CCO4)n(-c3ccnc(N[C@H]4CCCN(C(=O)C5CC5)C4)n3)c2C1 (stereo partly drawn) [Compound 22e]
Reading: < 30 nM
//
Molecule: NC(=O)C1Cc2nc(-c3ccc4c(c3)CCO4)n(-c3ccnc(N[C@@H]4CCCN(C(=O)C5CC5)C4)n3)c2C1 (stereo partly drawn) [Compound 23e]
Reading: < 30 nM
//
Molecule: CCOC(=O)C1Cc2nc(-c3ccc4c(c3)CCO4)n(-c3ccnc(N[C@H]4CCN(C(=O)C5CC5)C4)n3)c2C1 (stereo partly drawn) [Compound 16e]
Reading: > 1000 nM
//
Molecule: NC(=O)C1Cc2nc(-c3ccc4c(c3)CCO4)n(-c3ccnc(N[C@H]4CCN(C(=O)C5CC5)C4)n3)c2C1 (stereo partly drawn) [Compound 20e]
Reading: < 30 nM
//
Molecule: CNC(=O)C1Cc2nc(-c3ccc4c(c3)CCO4)n(-c3ccnc(N[C@H]4CCCN(C(=O)C5CC5)C4)n3)c2C1 (stereo partly drawn) [Compound 26e]
Reading: > 1000 nM
//
Molecule: NC(=O)C1Cc2nc(-c3ccc4c(c3)CCO4)n(-c3ccnc(N[C@@H]4CCN(C(=O)C5CC5)C4)n3)c2C1 (stereo partly drawn) [Compound 21e]
Reading: < 30 nM
//
Molecule: CCOC(=O)C1Cc2nc(-c3ccc4c(c3)CCO4)n(-c3ccnc(N[C@@H]4CCCN(C(=O)C5CC5)C4)n3)c2C1 (stereo partly drawn) [Compound 19e]
Reading: < 30 nM
//
Molecule: CCOC(=O)C1Cc2nc(-c3ccc4c(c3)CCO4)n(-c3ccnc(N[C@H]4CCCN(C(=O)C5CC5)C4)n3)c2C1 (stereo partly drawn) [Compound 18e]
Reading: < 30 nM
//
Molecule: CCOC(=O)C1Cc2nc(-c3ccc4c(c3)CCO4)n(-c3ccnc(N[C@@H]4CCN(C(=O)C5CC5)C4)n3)c2C1 (stereo partly drawn) [Compound 17e]
Reading: < 30 nM
